Listed here are molecules together with their documented inhibition.
Assay: M. tuberculosis growth inhibition, HTS (AID 449762);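 note: bacterial growth assessed after seven days of incubation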
Details: M. tuberculosis H37Rv growth inhibition, 7H9 media; at 25 µM; active compounds read high
The whole screen tested about 330,000 compounds, of which about 1,900 (0.58%) were called active. About 4% were inconclusive and are not listed. These entries were drawn from the full list. Entries with a potency or affinity are not part of this list.
Numbers only; they are read as %.

molecule=CCn1c(CSCc2ccc(C)cc2)n[nH]c1=S value_unit=% result_number=3.1
molecule="CCOc1cc2c3c(c1)C1(Nc4ccccc4S1)C(=O)N3C(C)(C)CC2C (stereo not drawn)" value_unit=% result_number=22.3
molecule="COC(=O)C1CCCCN1C(=O)CCc1nnc(CCc2c[nH]c3ccccc23)o1 (stereo not drawn)" value_unit=% result_number=0.08
molecule=COc1ccccc1NC(=O)CSc1nn2c(=O)c(C)nnc2s1 value_unit=% result_number=-20.7
molecule="CC(Oc1ccc(Cl)cc1)C(=O)N(C)CC(=O)Nc1ccc(N2CCOCC2)cc1 (stereo not drawn)" value_unit=% result_number=-7.54
molecule=CN1CC=C(c2c[nH]c3ccccc23)CC1 value_unit=% result_number=-13.7
molecule="COc1cc(C2/C(=C(\\O)c3ccc4c(c3)OCCO4)C(=O)C(=O)N2Cc2ccco2)ccc1O (stereo not drawn)" value_unit=% result_number=-4.18
molecule=CCN(CC)C(=S)SCC(=O)c1ccccc1 value_unit=% result_number=3.47
molecule=COc1cc(C(=O)ONC(=O)c2ccc(OC(F)F)cc2)cc(OC)c1OC value_unit=% result_number=0.02
molecule="COc1ccc(OC)c(C2CC(c3c(-c4ccccc4)c4cc(Cl)ccc4[nH]c3=O)=NN2S(C)(=O)=O)c1 (stereo not drawn)" value_unit=% result_number=44.4

The molecule listed as COc1cccc(NC(=O)Cn2c(=O)n(-c3ccccc3)c(=O)c3oc4ccccc4c32)c1 has a reported inhibition of -3.21

====

Assay: M. tuberculosis growth inhibition, HTS (AID 449762);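 note: bacterial growth assessed after seven days of incubation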
Settings: M. tuberculosis H37Rv growth inhibition, 7H9 media; at 25 µM; active compounds read high
About 1,900 (0.58%) of roughly 330,000 compounds were called active. Not shown: some 4% with an inconclusive outcome. Only a sample is shown. Potency and affinity values are given separately.
Listed here are compounds together with their documented inhibition.
Numbers only; they are read as %.

Answered cases to consult:
compound=c1ccc(-c2cn(-c3ccccc3)c3[n+]2CCCS3)cc1 result_number=-1.4
compound=COc1ccc(Nc2nc(N3CCN(S(C)(=O)=O)CC3)nc3ccccc23)c(OC)c1 result_number=2.78
compound=CC(C)(C)OC(=O)NCCCCCNC(=O)c1[nH]cnc1C(=O)Nc1ccon1 result_number=-5.82
compound=COc1ccc(OC)c(C(=O)COC(=O)CNC(=O)c2ccccc2)c1 result_number=-2.57
compound=CCOCCN1CCN(c2nnc3n2-c2ccc(Cl)cc2C(c2ccccc2Cl)=NC3)CC1 result_number=4.83
compound=Cc1c(NS(=O)(=O)c2ccc(Br)cc2)c(=O)n(-c2ccccc2)n1C result_number=0.05
compound=CSc1nsc(SC)c1C(=O)OCC(F)(F)F result_number=-1.41
compound=COc1ccc(Br)cc1/C=C/c1ccc2cccc(O)c2n1 result_number=69.8

The compound listed as O=C(COC(=O)Cc1ccsc1)NCc1ccc(Cl)cc1 has a reported inhibition of 8.12

The compound listed as Cc1sc2ncn(CC(=O)N(CC(=O)NC3CCCC3)Cc3cccs3)c(=O)c2c1C has a reported inhibition of -6.3

The compound listed as CCC(C)NC(=O)CN1C(=O)NC2(CCOc3ccccc32)C1=O (centres undefined) has a reported inhibition of 7.03

The compound listed as COc1ccc(CN2C(=NC(=O)COc3ccccc3)SC3CS(=O)(=O)CC32)cc1 (centres undefined) has a reported inhibition of -7.1

The compound listed as COc1ccc(CCNC(=O)C(=O)NCC2OCCN2S(=O)(=O)c2ccc(C)cc2)cc1OC (centres undefined) has a reported inhibition of -6.63

The compound listed as CCCn1c(Nc2ccccc2)nc2ccccc21 has a reported inhibition of 3.3

The compound listed as COCC1CCN(Cc2nc(Cc3ccccc3Cl)no2)CC1 has a reported inhibition of 4.51

The compound listed as CC(=O)Nc1ccc(CN2CCN(CCc3ccccc3)C(CCO)C2)cc1 (centres undefined) has a reported inhibition of -3.1

The compound listed as CCCn1c(Nc2ccccc2C)nc2ccccc21 has a reported inhibition of -13.5

The compound listed as COc1cc(Br)c(/C=C/c2ccc3cccc(O)c3n2)cc1OC has a reported inhibition of 15.4

The compound listed as Cc1ccc(/C=C/S(=O)(=O)NCC(=O)OCC(=O)Nc2ccc(C(N)=O)cc2)cc1 has a reported inhibition of -3.63

====

Assay: M. tuberculosis growth inhibition, HTS (AID 449762);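 note: bacterial growth assessed after seven days of incubation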
Details: M. tuberculosis H37Rv growth inhibition, 7H9 media; at 25 µM; active compounds read high
Among all 330,000 compounds or so, about 1,900 (0.58%) were called active. About 4% were inconclusive and are not listed. These entries were drawn from the full list. Entries with a potency or affinity are not part of this list.
Listed here are compounds together with their documented inhibition.
Numbers only; they are read as %.

The compound listed as CC(C)[C@H](NC(=O)c1ccccc1F)C(=O)Nc1nc2c(s1)CCCC2 has a reported inhibition of -0.81

The compound listed as COc1ccccc1C(=O)N/C(N)=N/c1nc2ccccc2o1 has a reported inhibition of 0.95

====

Listed here are compounds together with their documented inhibition.
Test: M. tuberculosis growth inhibition, HTS (AID 449762);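 note: bacterial growth assessed after seven days of incubation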
Conditions: M. tuberculosis H37Rv growth inhibition, 7H9 media; at 25 µM; active compounds read high
Among all 330,000 compounds or so, about 1,900 (0.58%) were called active. About 4% were inconclusive and are not listed. The list is a sample of the results. Potency and affinity values are given separately.
Numbers only; they are read as %.

Answered cases to consult:
compound=O=C(COc1ccc(F)cc1)NNC(=O)c1cc2ccccc2oc1=O result_number=-1.43
compound=Cc1ccc(N(CCC#N)C(=O)COC(=O)c2cc(C)oc2C)cc1 result_number=-1.99
compound=S=C(NCc1cccnc1)NCc1cccnc1 result_number=-1.16
compound=O=C(COc1ccccc1)NNC(=O)c1cc2ccccc2oc1=O result_number=-4.55
compound=N/C(=N\OS(=O)(=O)c1cc(Cl)ccc1Cl)c1ccncc1 result_number=1.49

The compound listed as CNC(=O)c1cnn(-c2nc(-c3ccc(OC)cc3)cs2)c1C(F)(F)F has a reported inhibition of 9.09

The compound listed as Cc1ccnc(NC(=O)c2ccc(Cl)c(NC(=O)c3ccccc3C)c2)c1 has a reported inhibition of -1.18

The compound listed as CN(Cc1nccs1)C(=O)CC1C(=O)NCCN1Cc1ccc(-c2ccccc2)cc1 (stereo unspecified) has a reported inhibition of -5.55

====

Listed here are molecules together with their documented inhibition.
Assay: M. tuberculosis growth inhibition, HTS (AID 449762);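 note: bacterial growth assessed after seven days of incubation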
Conditions: M. tuberculosis H37Rv growth inhibition, 7H9 media; at 25 µM; active compounds read high
In all, about 330,000 compounds went through this assay and about 1,900 (0.58%) were called active. Inconclusive results (about 4%) are left out. These entries were drawn from the full list. Potency and affinity values are given separately.
Numbers only; they are read as %.

Answered cases to consult:
molecule=CCn1nnc2c(=O)oc3ccccc3c21 result_number=28.6
molecule="COC(=O)C1=C(N)OC2=C(C(=O)CC(C)(C)C2)C1c1ccccc1OCC#N (stereo not given)" result_number=4.16
molecule=COc1ccc(C(=O)N2CCC(n3nccc3NC(=O)C3CC3)CC2)cc1F result_number=0.61
molecule=O=C(O)CCCC(=O)N1CCN(c2nc(-c3ccccc3Cl)c3cc(Br)ccc3n2)CC1 result_number=2.83
molecule="CC(C)CC(CO)N1CCN(C(=O)c2ccc(Cl)c(Cl)c2)CCC1=O (stereo not given)" result_number=-0.29
molecule=COc1ccc(-c2cc3c(=O)n(CC(=O)NCCCN4CCC(N5CCCCC5)CC4)ncn3n2)cc1 result_number=2.99

The molecule listed as CCCCn1c(N)c(N(CC(C)C)C(=O)CCCc2nc3ccccc3s2)c(=O)[nH]c1=O has a reported inhibition of -2.46

The molecule listed as COc1cc(NS(C)(=O)=O)c(OC)cc1NC(=O)c1ccccc1 has a reported inhibition of -13.2

The molecule listed as COC(=O)C1=C(c2cccc(C#N)c2)C[C@@H]2CC[C@H]1N2C(=O)NCCc1ccccc1 has a reported inhibition of -2.69

The molecule listed as CCn1c(COc2ccc(OC)cc2)nnc1SCc1nc2ccccc2c(=O)[nH]1 has a reported inhibition of -7.06

====

Assay: M. tuberculosis growth inhibition, HTS (AID 449762);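 note: bacterial growth assessed after seven days of incubation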
Conditions: M. tuberculosis H37Rv growth inhibition, 7H9 media; at 25 µM; active compounds read high
In all, about 330,000 compounds went through this assay and about 1,900 (0.58%) were called active. Another 4% or so got no clear call; they are omitted. These entries were drawn from the full list. Results with a measured potency or affinity are listed apart.
Listed here are molecules together with their documented inhibition.
Numbers only; they are read as %.

Answered cases to consult:
molecule=CC1CCN(CCCn2c(SCC(=O)Nc3ccccc3Cl)nc3ccccc3c2=O)CC1 result_number=6.66
molecule=Brc1ccc(/C=N/Nc2nncc(-c3ccccc3)n2)o1 result_number=-1.56
molecule=O=C(O)c1ccccc1SSc1ccccc1C(=O)O result_number=-0.04
molecule=O=C(CCn1cnnn1)Nc1ccc(Cl)cc1Cl result_number=-5.53
molecule=CCn1c(CSc2nnc(-c3ccc4c(c3)OCO4)o2)nc2cc(S(=O)(=O)N(C)C)ccc21 result_number=-2.02
molecule=Cc1nc(SCC(=O)c2cc3ccccc3oc2=O)c(C#N)c(-c2ccccc2)c1C(=O)Nc1ccccc1 result_number=17.1
molecule=Cc1ccc(NC(=O)CSc2nc3ccccc3c(=O)n2CCCN2CCCCC2)cc1C result_number=24.1
molecule="CC1CCCC(NC(=O)C2CCN(C(=O)Nc3ccccc3)CC2)C1C (stereo not given)" result_number=-2.53
molecule=Cc1nc(SCC(=O)c2cc3ccccc3oc2=O)c(C#N)c(-c2cccs2)c1C(=O)Nc1ccccc1 result_number=3.9

The molecule listed as COc1ccccc1-c1cc(C(=O)N2CCN(c3ccccc3)CC2)no1 has a reported inhibition of -4.77
